# subject.of.test: SARS-CoV-2 RBD (SARS-CoV-2)
# protocol.details: sVNT, cPass kit with SARS-CoV-2 RBD-HRP; HEK293 supernatant
measured.endpoint: sVNT SARS-CoV-2 (% I) (%)
Give the value in % but do not write % after it.

# input binder: Antibody 15 (SS6V15-F6) (antibody, V domains shown) VH: EVQLVESGGGVVQPGRSLRLSCAASGFTFSSYAIHWVRQAPGKALEWVALISYDGRTKYYADSVKGRFTISRDNSKNTLYLQMNSLRAEDTAVYYCARLDIIITPPANDYWGQGTLVTVSS VL: EIVLTQSPGTLSLSPGDRATVSCRASQIVSSNYLAWYQQKPGQVPRLLIYDASSRATGIPDRFSGSGSGTDFTLTISRLEPEDFAVYYCHQYGDSRRTFGQGTKVDIK ; wanted: its sVNT SARS-CoV-2 (% I)
15.7

Moving on to Antibody 12 (SS6V12-E11) (antibody, V domains shown) VH: EVQLVESGGGLVKPGGSLRLSCAASGFTFSTYNMNWVRQAPGKGLEWVSSISSSSSFMFYADSVKGRFTISRDNANNSLYLQMNSLRAEDTAVYYCARDYYDNSGYYYYGMDVWGQGTTVTVSS VL: DIQMTQSPSSLSASVGDRVTITCRASQSIRTYLSWYQQKPGKAPELLIYAASNLQSGVPSRFSGSGSGTDFTLTISSLQPEDFATYYCLQTYSTPQITFGQGTRLEIE
45

---
Fill in the blank: the reported sVNT SARS-CoV-2 (% I) of Antibody 18 (SS6V18-E3) (antibody, V domains shown) VH: EVQLVESGGGLVQPGGSLRLSCAASGFTFSSYAMHWVRQVPGKGLEYVSSITSNGGGTFYADSVKGRFTISRDNSKNTVYLQMGSLSTEDMALYYCAREGIQGWVTYFDYWGRGILVTVSS VL: DIQMTQSPSSLSASIGDRVTITCRASQSISTNLNWYQQKPGKAPKLLIYAASSLPSGVPSRFSGSGSGTDFTLTISSLQPEDFANYLCQQTYTTPQYSFGQGTKVEIK is ____.
15.5

src = patent US20240254204A1
